# EXPERIMENTAL PROTOCOL: Cytotoxicity counterscreen for inhibitors of SARS-CoV-2 cell entry (AID 1645845); note: nearly all actives have a fitted effect of over 50% in size
# CONDITION INFO: cell viability (SARS-CoV-2 entry assay cells); series mostly up to 57.1 µM
Inconclusive results are not listed. The source made the active and inactive calls. Calls come from the whole dose curve.
Outcomes: active, inactive

MOLECULE	CATEGORY LABEL
CCCCOc1ccc(C(=O)CCN2CCCCC2)cc1	inactive
CCCCCCCCCCCCOS(=O)(=O)O	inactive
COC(=O)C1=C(C)NC(C)=C(C(=O)OC)C1c1ccccc1[N+](=O)[O-]	inactive
COc1ccc2cc1Oc1ccc(cc1)C[C@H]1c3c(cc4c(c3Oc3cc5c(cc3OC)CCN(C)[C@@H]5C2)OCO4)CCN1C	active
CC(C)NCC(O)COc1ccc(COCCOC(C)C)cc1 (stereo not given)	inactive

----------
# CONDITION INFO: Ebola virus entry assay, reporter ratio channel; Channel type: primary
Calls of active or inactive are those of the source.
Outcome codes: y for active, n for inactive

COMPOUND	CATEGORY LABEL
O=C(c1cc(O)c(O)c(O)c1)c1ccc(O)c(O)c1O	y
CCCOC(C(=O)OC1CCN(C)CC1)(c1ccccc1)c1ccccc1	y
CCOC(=O)c1ccc(OC(=O)CCCCCN=C(N)N)cc1	n
CCC(=O)O[C@]1(C(=O)CCl)[C@@H](C)C[C@H]2[C@@H]3CCC4=CC(=O)C=C[C@]4(C)[C@@]3(F)[C@@H](O)C[C@@]21C	y
COc1ccc(C(=O)N2CCCC2=O)cc1	n
NC[C@H]1O[C@H](O[C@H]2[C@H](O)[C@@H](O[C@H]3O[C@H](CO)[C@@H](O)[C@H](N)[C@H]3O)[C@H](N)C[C@@H]2N)[C@H](N)[C@@H](O)[C@@H]1O	n
O=C(O)Cc1ccc2c(c1)C(=O)c1ccccc1CO2	n
CCC(=O)O[C@]1(C(=O)SCF)[C@H](C)C[C@H]2[C@@H]3C[C@H](F)C4=CC(=O)C=C[C@]4(C)[C@@]3(F)[C@@H](O)C[C@@]21C	n
Cc1cc(C2CCCCC2)n(O)c(=O)c1	y
OC[C@]1(O)OC[C@@H](O)[C@H](O)[C@@H]1O	n
CN1CCN(C2=Nc3ccccc3Sc3ccc(Cl)cc32)CC1	y
O=C1NC(=O)[C@@]2(CCOc3ccc(F)cc32)N1	n
CCc1cc(Cl)c(OC)c(C(=O)NC[C@@H]2CCCN2CC)c1O	y
CN1CCCN=C1COC(=O)C(O)(c1ccccc1)C1CCCCC1 (centres undefined)	y
O=C(CCCCC(=O)Nc1c(I)cc(I)c(C(=O)O)c1I)Nc1c(I)cc(I)c(C(=O)O)c1I	n
OCC(O)CN1CCN(c2ccccc2)CC1 (centres undefined)	n
CC(CNC1CCCCC1)OC(=O)c1ccccc1 (centres undefined)	y
CCCc1cc(C(N)=S)ccn1	n
O=C1OC2(c3ccccc31)c1cc(I)c(O)c(I)c1Oc1c2cc(I)c(O)c1I	y
CCOc1ccc(C(=O)OCCN(CC)CC)cc1	n
CCCCCC1Nc2cc(C(F)(F)F)c(S(N)(=O)=O)cc2S(=O)(=O)N1 (centres undefined)	n
CCOc1cc(N)c(Cl)cc1C(=O)NCC1CN(Cc2ccc(F)cc2)CCO1 (centres undefined)	y
C[C@@H]1C[C@@H]([C@H](O)CC2CC(=O)NC(=O)C2)C(=O)[C@@H](C)C1	n
O=C(O)Cc1ccc(CCNS(=O)(=O)c2ccc(Cl)cc2)cc1	n
CCCCOc1ccc(CC(=O)NO)cc1	n
Cc1c(C(=O)NN2CCCCC2)nn(-c2ccc(Cl)cc2Cl)c1-c1ccc(Cl)cc1	y
O=C(CCl)c1ccc(Cl)cc1Cl	n
CC(C)(C)NCC(O)COc1cccc2c1CCC(=O)N2 (centres undefined)	n
C[N+](C)(C)CC[N+]1(C)Cc2c(Cl)c(Cl)c(Cl)c(Cl)c2C1	n

----------
Entries and their measured efficacy follow.
# CONDITION INFO: Ebola virus entry assay, green fluorescence channel
Results with a measured potency or affinity are listed apart.

GIVEN SMILES	efficacy (%)
C=CC[N+]1([C@H]2C[C@H]3[C@@H]4CC[C@H]5C[C@H](OC(C)=O)[C@@H](N6CCCCC6)C[C@]5(C)[C@H]4CC[C@]3(C)[C@H]2OC(=O)CC)CCCCC1	47.7
CN1CCN(C2=Nc3cc(F)ccc3Cc3ccccc32)CC1	49.4
NC(=O)CN1CCCC1=O	23.9
CC(C)=CCOc1ccc(/C=C/C(=O)c2ccc(OCC=C(C)C)cc2OCC(=O)O)cc1	-15.5
CN(C)CCN(Cc1cccs1)c1ccccn1	21.2
NC[C@H]1O[C@H](O[C@H]2[C@H](O)[C@@H](O[C@H]3O[C@H](CO)[C@@H](O)[C@H](N)[C@H]3O)[C@H](N)C[C@@H]2N)[C@H](N)[C@@H](O)[C@@H]1O	-12.5

----------
# EXPERIMENTAL PROTOCOL: qHTS for Inhibitors of the Functional Ribonucleoprotein Complex (vRNP) of Lassa (LASV) Arenavirus: LASV Primary Screen - GLuc reporter signal (AID 1347082); note: nearly all actives have a fitted effect of over 60% in size
# CONDITION INFO: LASV minigenome vRNP, Gaussia luciferase reporter; series mostly up to 57.5 µM
Results filed as inconclusive are left out. Calls of active or inactive are those of the source. The call rests on the fitted dose curve; tested in HEK293 reporter line.
Outcomes: active, inactive

COMPOUND	CATEGORY LABEL
NC(=O)OCCCc1ccccc1	inactive
COc1ccc2c(c1)c(CC(=O)OCC(=O)O)c(C)n2C(=O)c1ccc(Cl)cc1	inactive
CC(C(=O)O)c1ccc(CC2CCCC2=O)cc1 (configuration not stated)	inactive
CN(C)CCCOC1(Cc2ccccc2)CCCCCC1	inactive
Oc1cc(O)c2c(c1)O[C@H](c1ccc(O)c(O)c1)[C@H](O)C2	inactive
Cc1ccc(O)cc1	inactive
CNCCC(Oc1ccccc1OC)c1ccccc1 (configuration not stated)	inactive
COc1ccc2cc3[n+](cc2c1OC)CCc1cc2c(cc1-3)OCO2	active
CCOC(=O)c1ccc(NC(=O)CN2CCCCC2)cc1	inactive
Cc1c(N)cccc1C(F)(F)F	inactive
CCCCCCCCCCCCCCCC[N+](C)(C)Cc1ccccc1	inactive
Oc1c(Br)cc(Br)cc1Br	inactive

----------
# EXPERIMENTAL PROTOCOL: qHTS of pediatric cancer cell lines to identify multiple opportunities for drug repurposing: Primary screen for SJ-GBM2 cells (AID 1347091)
# CONDITION INFO: SJ-GBM2 viability, CellTiter-Glo luminescence, 48 h; series mostly up to 46 µM
# Description: Drug repurposing or repositioning has been offered as a strategy for drug development in oncology programs. […] [1] Shen, M et al. Quantitative high-throughput phenotypic screening of pediatric cancer cell lines identifies multiple opportunities for drug repurposing. […] Cells were assayed in growth media at a density of 500-1,000 cells/well. […] After a 15 min incubation at room temperature, samples were analyzed for luminescence intensity using a ViewLux High-throughput CCD imager equipped with clear filters.
Results filed as inconclusive are left out. Active and inactive are the calls of the source. The call rests on the fitted dose curve; in most records, active means well fitted cell-killing curve with a large enough effect; inconclusive means small, poorly fitted or top-dose-only effect; inactive means no such curve, though single readings can be large or run the other way.
Classes used: t = active, f = inactive

COMPOUND	CATEGORY LABEL
Nc1ccc(Cl)cc1C(=O)c1ccccc1F	f
O=C1CN2CCOC2(c2ccccc2Cl)c2cc(Cl)ccc2N1 (stereo unspecified)	f
NC1(c2ccccc2)CCCCC1	f
CN(C)CCc1c[nH]c2ccccc12	f
C[C@@H]1CN(C2CCC(C#N)(c3ccc(F)cc3)CC2)CC[C@]1(C(=O)O)c1ccccc1 (stereo partly specified)	f
CC(C)=C[C@@H]1[C@@H](C(=O)OCc2coc(Cc3ccccc3)c2)C1(C)C	f
C1CN2CCC1CC2	f
COc1cc(C[C@@H](C)N)c(OC)cc1Br	f
COc1ccc2c(C(=O)c3ccc(Cl)cc3)c(C)n(CC(=O)O)c2c1	f
Oc1c(Br)cc(Br)cc1Br	f
C[C@H]1C(=O)O[C@@H]2CCN3CC=C(COC(=O)[C@](C)(O)[C@]1(C)O)[C@H]23	f
CC[C@H](O)C(C[C@H](C)N(C)C)(c1ccccc1)c1ccccc1	f
COc1ccc(OC)c(CC(C)N)c1 (stereo unspecified)	f
CN1CCC(N(Cc2ccccc2)c2ccccc2)CC1	f
Cc1nnc2n1-c1sc(CCC(=O)N3CCOCC3)cc1C(c1ccccc1Cl)=NC2	f
CC[n+]1c(-c2ccccc2)c2cc(N)ccc2c2ccc(N)cc21	t

----------
# TARGET: Calcium and integrin-binding protein 1 (Homo sapiens) (UniProt Q99828)
# Sequence (Q99828 whole entry, looked up): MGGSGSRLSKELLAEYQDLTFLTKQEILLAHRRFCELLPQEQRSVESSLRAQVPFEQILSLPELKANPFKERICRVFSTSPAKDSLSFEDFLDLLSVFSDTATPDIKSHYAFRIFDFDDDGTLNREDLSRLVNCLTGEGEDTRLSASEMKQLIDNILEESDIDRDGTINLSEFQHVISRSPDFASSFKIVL
# EXPERIMENTAL PROTOCOL: Primary qHTS for Identification of Calcium Integrin Binding Protein 1 (CIB1) Competitor (AID 1508620); note: potency is the fitted concentration of half-maximal effect
# CONDITION INFO: CIB1-GST / FITC-alphaIIb peptide fluorescence polarization; series mostly up to 114 µM
Results filed as inconclusive are left out. The source made the active and inactive calls. Calls follow the shape of the dose curve; as a rule, active = well fitted inhibition curve with a large enough effect; inconclusive = small, poorly fitted or top-dose-only effect; inactive = flat fitted curve, though single readings scatter.
RESULT TYPE: Potency

COMPOUND	TARGET	VALUE REPORTED
CN1C[C@@H](NS(=O)(=O)N(C)C)C[C@@H]2c3cccc4c3c(cn4C)C[C@H]21	Calcium and integrin-binding protein 1 (Homo sapiens) (UniProt Q99828)	inactive
CN1C(=O)CN=C(c2ccccc2)c2cc(Cl)ccc21	Calcium and integrin-binding protein 1 (Homo sapiens) (UniProt Q99828)	inactive
CC#C[C@]1(O)CC[C@H]2[C@@H]3C[C@H](C)C4=CC(=O)CC[C@]4(C)[C@H]3CC[C@@]21C	Calcium and integrin-binding protein 1 (Homo sapiens) (UniProt Q99828)	inactive
COc1cc(CC(C)N)cc2c1OCO2 (configuration not stated)	Calcium and integrin-binding protein 1 (Homo sapiens) (UniProt Q99828)	inactive
C[C@H]1C(=O)O[C@@H]2CCN3CC=C(COC(=O)[C@](C)(O)[C@]1(C)O)[C@H]23	Calcium and integrin-binding protein 1 (Homo sapiens) (UniProt Q99828)	inactive
CCS(=O)(=O)C(C)(C)S(=O)(=O)CC	Calcium and integrin-binding protein 1 (Homo sapiens) (UniProt Q99828)	inactive
CC(C)C(Br)C(=O)NC(N)=O (configuration not stated)	Calcium and integrin-binding protein 1 (Homo sapiens) (UniProt Q99828)	inactive
C1CN2CCC1CC2	Calcium and integrin-binding protein 1 (Homo sapiens) (UniProt Q99828)	inactive
Cc1nnc2n1-c1sc(CCc3ccc(CC(C)C)cc3)cc1C(c1ccccc1Cl)=NC2C (configuration not stated)	Calcium and integrin-binding protein 1 (Homo sapiens) (UniProt Q99828)	inactive
CC(CC(C(N)=O)(c1ccccc1)c1ccccc1)N(C)C (configuration not stated)	Calcium and integrin-binding protein 1 (Homo sapiens) (UniProt Q99828)	inactive
CN(C)C(=S)SSC(=S)N(C)C	Calcium and integrin-binding protein 1 (Homo sapiens) (UniProt Q99828)	39.8 µM (active)
ClCc1cccc(Cl)c1	Calcium and integrin-binding protein 1 (Homo sapiens) (UniProt Q99828)	inactive
N#Cc1nn(-c2c(Cl)cc(C(F)(F)F)cc2Cl)c(N)c1S(=O)C(F)(F)F (configuration not stated)	Calcium and integrin-binding protein 1 (Homo sapiens) (UniProt Q99828)	inactive
CCC1(c2ccccc2)CCC(=O)NC1=O (configuration not stated)	Calcium and integrin-binding protein 1 (Homo sapiens) (UniProt Q99828)	inactive
CC(C)=CCN1CC[C@@]2(C)c3cc(O)ccc3C[C@@H]1[C@@H]2C	Calcium and integrin-binding protein 1 (Homo sapiens) (UniProt Q99828)	inactive
CCCCCCCCC(=O)NCc1ccc(O)c(OC)c1	Calcium and integrin-binding protein 1 (Homo sapiens) (UniProt Q99828)	inactive
C[C@H](CN1CCOCC1)C(C(=O)N1CCCC1)(c1ccccc1)c1ccccc1	Calcium and integrin-binding protein 1 (Homo sapiens) (UniProt Q99828)	inactive
C[C@@H]1C[C@@H]([C@H](O)CC2CC(=O)NC(=O)C2)C(=O)[C@@H](C)C1	Calcium and integrin-binding protein 1 (Homo sapiens) (UniProt Q99828)	inactive
Sc1ccccc1Cl	Calcium and integrin-binding protein 1 (Homo sapiens) (UniProt Q99828)	inactive
CC(C)=C[C@@H]1[C@@H](C(=O)OCc2coc(Cc3ccccc3)c2)C1(C)C	Calcium and integrin-binding protein 1 (Homo sapiens) (UniProt Q99828)	inactive
C[C@]12CC[C@H]3[C@@H](CCC4=CC(=O)CC[C@@H]43)[C@@H]1CC[C@@H]2O	Calcium and integrin-binding protein 1 (Homo sapiens) (UniProt Q99828)	inactive
CN(C)CCc1c[nH]c2ccccc12	Calcium and integrin-binding protein 1 (Homo sapiens) (UniProt Q99828)	inactive

# credit: PubChem BioAssay (NCATS)
